Values compiled from the supplement of paper PMC8967900.

- Test system: COG-LL-355h
- test-protocol: selective drug sensitivity score (sDSS, relative to normal bone marrow) (sDSS (score)); higher = more potent and effective on the cell line relative to normal bone marrow cells;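 note: ALL cell lines in 384-well plates, five doses spanning 10,000-fold, each plate scaled between vehicle and 100 µmol/L benzalkonium chloride controls, sDSS an adapted area-under-curve metric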
- measurement-setup: 72 h
Values of selective drug sensitivity score greater than or equal to 1 map to 1 (yes); values below map to 0 (no).

molecule | label-value
COC(=O)c1ccc2c(c1)[nH]c1ncnc(NCCCN3CCCCC3)c12 [UM729] (top concentration 10000 nM) | 1 (yes)

Request: Tell me whether selective drug sensitivity score is at least 1 here: FC(F)c1nc2ccccc2n1-c1nc(N2CCOCC2)nc(N2CCOCC2)n1 [ZSTK474] (top concentration 10000 nM)
Response: 1 (yes)

Request: Tell me whether selective drug sensitivity score is at least 1 here: C[C@@H](Oc1cc(-n2cnc3ccc(CN4CCN(C)CC4)cc32)sc1C(N)=O)c1ccccc1C(F)(F)F (top concentration 10000 nM)
Response: 1 (yes)

###

For each record, write down the corresponding selective drug sensitivity score.
- Tested on: 380
- test-protocol: selective drug sensitivity score (sDSS, relative to normal bone marrow) (sDSS (score)); higher = more potent and effective on the cell line relative to normal bone marrow cells
- measurement-setup: 72 h
Give bare numbers.

Here are 4 molecules together with their reported answers.
molecule | numeric-readout
O=C(NOC[C@H](O)CO)c1ccc(F)c(F)c1Nc1ccc(I)cc1F (top concentration 1000 nM) | 2.24
COc1ccc(-c2ccc3ncc4c(c3c2)n(-c2ccc(N3CCNCC3)c(C(F)(F)F)c2)c(=O)n4C)cn1 [NVP-BGT226] (top concentration 1000 nM) | 12.2
COc1cc(OC)cc(N(CCNC(C)C)c2ccc3ncc(-c4cnn(C)c4)nc3c2)c1 [Erdafitinib] (top concentration 1000 nM) | -0.56
CO[C@@H](C)Cn1c(=O)n(C)c2cnc3ccc(-c4cncc(C(C)(C)O)c4)cc3c21 (top concentration 2500 nM) | 10.3

Hi there! I need selective drug sensitivity score for each item below, if you can.
1. CN(C)CCCOc1ccc(-c2ccc3ncc4c(c3c2)n(C2CCOCC2)c(=O)n4C)cn1 [AZD0156] (top concentration 1000 nM)
2. O=c1sn(-c2cccc3ccccc23)c(=O)n1Cc1ccccc1 [Tideglusib] (top concentration 3000 nM)

Response:
2.24
-0.3

###

- Tested on: SEM cells
- test-protocol: selective drug sensitivity score (sDSS, relative to normal bone marrow) (sDSS (score)); higher = more potent and effective on the cell line relative to normal bone marrow cells
- measurement-setup: 72 h
measurement-label: selective drug sensitivity score
Numbers only.

molecule | numeric-readout
COc1ccc(C[C@H](NC(=O)[C@H](C)NC(=O)CN2CCOCC2)C(=O)N[C@@H](Cc2ccccc2)C(=O)[C@@]2(C)CO2)cc1 [ONX-0914] (top concentration 10000 nM) | 7.2
CC#CC(=O)N1CC[C@@H](n2c(=O)n(-c3ccc(Oc4ccccc4)cc3)c3c(N)ncnc32)C1 [Tirabrutinib] (top concentration 1000 nM) | 1.1

Hi there! I need selective drug sensitivity score for each item below, if you can.
1. O=C(c1cccc(Cl)c1F)N1CCN(Cc2cccc(Nc3nccs3)n2)CC1 [MK-8745] (top concentration 10000 nM)
2. CC[C@@H]1C(=O)N(C)c2cnc(Nc3ccc(C(=O)N[C@H]4CC[C@H](N5CCN(CC6CC6)CC5)CC4)cc3OC)nc2N1C(C)C [Volasertib] (top concentration 1000 nM)
3. CN(C)c1cc2c(cc1Sc1nc3c(N)nccc3n1CCNCC(C)(C)C)OCO2 [CUDC-305] (top concentration 10000 nM)
4. N#Cc1ccc(C(c2ccc(C#N)cc2)n2cncn2)cc1 [Letrozole] (top concentration 10000 nM)

Response:
[18.3, 21.4, 5.12, -0.04]

Hi there! I need selective drug sensitivity score for each item below, if you can.
1. CN(C)C(=N)NC(=N)N [Metformin] (top concentration 100000 nM)
2. S=C(NCc1ccc2c(c1)OCO2)N1CCN(c2ncnc3c2oc2ccccc23)CC1 [Amuvatinib] (top concentration 10000 nM)
3. Cc1[nH]c2ccccc2c1CCNCc1ccc(/C=C/C(=O)NO)cc1 [Panobinostat] (top concentration 1000 nM)
4. C=CCn1c(=O)c2cnc(Nc3ccc(N4CCN(C)CC4)cc3)nc2n1-c1cccc(C(C)(C)O)n1 [AZD1775] (top concentration 10000 nM)
5. NS(=O)(=O)NCCNc1nonc1/C(=N/O)Nc1ccc(F)c(Br)c1 [Epacadostat] (top concentration 10000 nM)
6. COc1ncc(-c2ccc3nccc(-c4ccnnc4)c3c2)cc1NS(=O)(=O)c1ccc(F)cc1F [Omipalisib] (top concentration 1000 nM)

Response:
-0.02
2.26
3.94
14.1
8.34
9.4

Request: For the molecule CC(C)C[C@@H](C(=O)N[C@H](C(=O)OC1CCCC1)c1ccccc1)[C@H](O)C(=O)NO [Tosedostat] (top concentration 10000 nM) , what selective drug sensitivity score is on record?
Response: 0.86

###

- Test system: REH
- test-protocol: selective drug sensitivity score (sDSS, relative to normal bone marrow) (sDSS (score)); higher = more potent and effective on the cell line relative to normal bone marrow cells
- measurement-setup: 72 h
Values of selective drug sensitivity score greater than or equal to -0.4 map to 1; values below map to 0.

Past entries and their recorded results:
molecule | label-value
O=C(CCNC(=O)c1ccc(OC(F)(F)F)cc1)N[C@@H]1CCCc2ccccc21 [ML390] (top concentration 50000 nM) | 1
Cn1c(=O)n(-c2ccc(C(C)(C)C#N)cc2)c2c3cc(-c4cnc5ccccc5c4)ccc3ncc21 [Dactolisib] (top concentration 1000 nM) | 1
COc1cccc2c1c(O)c(C(=O)N(C)c1ccc(C(F)(F)F)cc1)c(=O)n2C [Tasquinimod] (top concentration 10000 nM) | 0
CO[C@@H](C(=O)N1Cc2[nH]nc(NC(=O)c3ccc(N4CCN(C)CC4)cc3)c2C1)c1ccccc1 [Danusertib] (top concentration 10000 nM) | 1
Cc1cnc(Nc2ccc(OCCN3CCCC3)cc2)nc1Nc1cccc(S(=O)(=O)NC(C)(C)C)c1 [Fedratinib] (top concentration 10000 nM) | 0

Consider now this further molecule.
Request: Tell me whether selective drug sensitivity score is at least -0.4 here: COc1nc(N)nc2c1ncn2[C@@H]1O[C@H](CO)[C@@H](O)[C@@H]1O [Nelarabine] (top concentration 10000 nM)
Response: 0

###

- System: COG-LL-319h
- test-protocol: selective drug sensitivity score (sDSS, relative to normal bone marrow) (sDSS (score)); higher = more potent and effective on the cell line relative to normal bone marrow cells
- measurement-setup: 72 h
measurement-label: selective drug sensitivity score
Numbers only.

Here are 3 compounds together with their reported answers.
compound | selective drug sensitivity score
CO[C@@H](C(=O)N1Cc2[nH]nc(NC(=O)c3ccc(N4CCN(C)CC4)cc3)c2C1)c1ccccc1 [Danusertib] (top concentration 10000 nM) | 19
COc1ncc(-c2ccc3nccc(-c4ccnnc4)c3c2)cc1NS(=O)(=O)c1ccc(F)cc1F [Omipalisib] (top concentration 1000 nM) | 9.8
COc1cc2ncnc(Oc3cccc(NC(=O)Nc4cc(C(C)(C)C(F)(F)F)on4)c3)c2cc1OC (top concentration 10000 nM) | 12.3

Request: For the compound Nc1nc2[nH]cc(CCc3ccc(C(=O)N[C@@H](CCC(=O)O)C(=O)O)cc3)c2c(=O)[nH]1 [Pemetrexed] (top concentration 10000 nM) , what selective drug sensitivity score is on record?
Response: 27.3

###

For each record, write down the corresponding selective drug sensitivity score.
- Test system: DND-41
- test-protocol: selective drug sensitivity score (sDSS, relative to normal bone marrow) (sDSS (score)); higher = more potent and effective on the cell line relative to normal bone marrow cells
- measurement-setup: 72 h
Numbers only.

Here are 10 compounds together with their reported answers.
compound | target-desc | numeric-readout
O=C(CCNC(=O)c1ccc(OC(F)(F)F)cc1)N[C@@H]1CCCc2ccccc21 [ML390] (top concentration 50000 nM) | DND-41 | 5.4
CC[C@H](NC(=O)[C@H](C)NC)C(=O)N1C[C@@H](O)C[C@H]1Cc1c(-c2[nH]c3cc(F)ccc3c2C[C@@H]2C[C@H](O)CN2C(=O)[C@H](CC)NC(=O)[C@H](C)NC)[nH]c2cc(F)ccc12 [Birinapant] (top concentration 1000 nM) | DND-41 | -5.1
CNS(=O)(=O)Nc1nccc(Cc2c(C)c3ccc(Oc4ncccn4)cc3oc2=O)c1F (top concentration 1000 nM) | DND-41 | 3.92
O=C(/C=C/c1cccnc1)NCCCCC1CCN(C(=O)c2ccccc2)CC1 [Daporinad] (top concentration 1000 nM) | DND-41 | 19.9
CC(=O)[C@]1(O)Cc2c(O)c3c(c(O)c2[C@@H](O[C@H]2C[C@H](N)[C@H](O)[C@H](C)O2)C1)C(=O)c1ccccc1C3=O [Idarubicin] (top concentration 1000 nM) | DND-41 | 0.34
COc1c(OCCCN2CCOCC2)ccc2c1N=C(NC(=O)c1cnc(N)nc1)N1CCN=C21 [Copanlisib] (top concentration 1000 nM) | DND-41 | -2.72
O=C1Cc2cc(C(=O)NC3C[C@H]4CC[C@@H](C3)N4S(=O)(=O)CC3CCN(CCCC(F)(F)F)CC3)c(Cl)cc2N1 (some centres not stated) (top concentration 10000 nM) | DND-41 | 0
O=C(c1ccc(C(=O)N2CCC(N3CCCC3)CC2)c(Nc2ccccc2)c1)N1CCC(N2CCCC2)CC1 [UNC1215] (top concentration 10000 nM) | DND-41 | 0
CN(C)C(=O)c1cc2cnc(Nc3ccc(N4CCNCC4)cn3)nc2n1C1CCCC1 [Ribociclib] (top concentration 10000 nM) | DND-41 | 1.68
COc1ccc2[nH]cc(/C=C3\C(=O)Nc4ccc(NC(=O)CCN5CCCCC5)cc43)c2c1 (top concentration 50000 nM) | DND-41 | 1.38

Hi there! I need selective drug sensitivity score for each item below, if you can.
1. CC(C)C[C@@H](C(=O)N[C@H](C(=O)OC1CCCC1)c1ccccc1)[C@H](O)C(=O)NO [Tosedostat] (top concentration 10000 nM)
2. O=C(O)c1ccc(O)c2ncccc12 [IOX-1] (top concentration 100000 nM)

Response:
1. 5.16
2. 6.24
